targetOrSystem: AR protein in VCaP cells (Homo sapiens, UniProt P10275)
Construct: endogenous in cells; host or cells: VCaP cells
Sequence (P10275 1-920): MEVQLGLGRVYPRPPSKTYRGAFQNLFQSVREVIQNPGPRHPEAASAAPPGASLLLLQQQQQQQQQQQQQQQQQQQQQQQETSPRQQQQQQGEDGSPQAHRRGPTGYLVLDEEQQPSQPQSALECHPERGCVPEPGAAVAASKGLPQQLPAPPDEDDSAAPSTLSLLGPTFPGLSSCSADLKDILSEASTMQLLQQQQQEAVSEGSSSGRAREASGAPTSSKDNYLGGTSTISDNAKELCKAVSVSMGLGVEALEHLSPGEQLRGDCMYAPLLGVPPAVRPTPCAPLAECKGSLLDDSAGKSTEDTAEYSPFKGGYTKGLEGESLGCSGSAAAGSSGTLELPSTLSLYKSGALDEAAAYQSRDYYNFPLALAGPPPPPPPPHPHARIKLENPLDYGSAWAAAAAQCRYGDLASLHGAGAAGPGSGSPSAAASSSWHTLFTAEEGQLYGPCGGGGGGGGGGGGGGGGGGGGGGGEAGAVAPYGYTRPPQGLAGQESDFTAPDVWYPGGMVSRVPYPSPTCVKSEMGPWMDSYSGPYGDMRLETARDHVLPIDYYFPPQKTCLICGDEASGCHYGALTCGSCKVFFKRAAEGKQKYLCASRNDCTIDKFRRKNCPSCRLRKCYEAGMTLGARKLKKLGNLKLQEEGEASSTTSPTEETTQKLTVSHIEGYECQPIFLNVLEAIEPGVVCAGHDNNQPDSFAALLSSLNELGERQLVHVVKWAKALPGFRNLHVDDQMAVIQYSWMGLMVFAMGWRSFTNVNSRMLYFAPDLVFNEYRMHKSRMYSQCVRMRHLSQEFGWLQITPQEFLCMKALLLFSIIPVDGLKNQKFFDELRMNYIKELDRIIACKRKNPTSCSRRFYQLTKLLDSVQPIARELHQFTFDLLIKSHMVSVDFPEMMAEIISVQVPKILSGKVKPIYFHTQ
test: VCAP AR Degradation Assay (AR ELISA, 24 h)
Type: cell-based
particulars: AR degradation efficiency
Source text: VCAP AR Degradation Assay. Test compounds were pre-dispensed into a Corning CellBind 96-well clear bottom plate (Cat #3300) using an acoustic dispenser to make a 10-point concentration series at 1:3 dilution for each compound. The final top concentration of each compound was […]. DMSO at a final concentration of 0.1% was used as a control. […] AR levels in compound-treated wells were normalized to that of DMSO control and expressed as percent of control (PoC) (y). […]
propertyMeasured: Y (lowest measured AR level normalized to DMSO control)

compound	assayValue
CCc1cc(N2C(=S)N(c3ccc(C#N)c(C(F)(F)F)c3)C(=O)C2(C)C)ccc1OCCC1(F)CCN(CC(=O)Nc2cccc(NC3CCC(=O)NC3=O)c2)CC1 (stereo not drawn) [Cmpd 88]	* (0<Y<=25%)
CCc1cc(N2C(=S)N(c3cnc(C#N)c(C(F)(F)F)c3)C(=O)C2(C)C)ccc1OCCC1CCN([C@@H](C)C(=O)Nc2cccc(N[C@@H]3CCC(=O)NC3=O)c2)CC1 [Cmpd 44]	* (0<Y<=25%)

---

targetOrSystem: AR protein in VCaP cells (Homo sapiens)
Construct: endogenous in cells; host or cells: VCaP cells
test: VCAP AR Degradation Assay (AR ELISA, 24 h)
Format: cell-based
particulars: concentration of compound when AR level = 50% of DMSO control, read-out: DC50
propertyMeasured: DC50

molecule	assayValue
CCc1cc(N2C(=S)N(c3cnc(C#N)c(C(F)(F)F)c3)C(=O)C2(C)C)ccc1OCC[C@H]1CCN(CC(=O)Nc2cc(NC3CCC(=O)NC3=O)ccc2F)[C@H](C)C1 (some centres unmarked) [Cmpd 77]	100 to 500 nM
CCc1cc(N2C(=S)N(c3cnc(C#N)c(C(F)(F)F)c3)C(=O)C2(C)C)ccc1OCCC1CCN(C2(C(=O)Nc3cc(Cl)cc(NC4CCC(=O)NC4=O)c3)CC2)CC1 (centres unmarked) [Cmpd 34]	500 to 1000 nM
CCc1cc(N2C(=S)N(c3cnc(C#N)c(C(F)(F)F)c3)C(=O)C2(C)C)ccc1OCCC1CCN([C@H](C)C(=O)Nc2cc(Cl)cc(NC3CCC(=O)NC3=O)c2)CC1 (some centres unmarked) [Cmpd 25]	< 100 nM
CCc1cc(N2C(=S)N(c3ccc(C#N)c(C(F)(F)F)c3)C(=O)C2(C)C)ccc1OCCC1CCN(CC(=O)Nc2cc(NC3CCC(=O)NC3=O)ccc2F)CC1 (centres unmarked) [Cmpd 18]	100 to 500 nM

Query :: Item: CCc1cc(N2C(=S)N(c3ccc(C#N)c(C(F)(F)F)c3)C(=O)C23CCC3)ccc1OCCC1CCN([C@H](C)C(=O)Nc2cc(NC3CCC(=O)NC3=O)ccc2F)CC1 (some centres unmarked) [Cmpd 75] Test system: AR protein in VCaP cells (Homo sapiens) Read-out: DC50 Value: ?
Result :: 100 to 500 nM
